Below, each of the compounds is paired with its reported pKi value.
- Measured On: human growth hormone secretagogue receptor (hGHS-R1a) (Homo sapiens, UniProt Q92847)
- Sequence (Q92847 whole entry): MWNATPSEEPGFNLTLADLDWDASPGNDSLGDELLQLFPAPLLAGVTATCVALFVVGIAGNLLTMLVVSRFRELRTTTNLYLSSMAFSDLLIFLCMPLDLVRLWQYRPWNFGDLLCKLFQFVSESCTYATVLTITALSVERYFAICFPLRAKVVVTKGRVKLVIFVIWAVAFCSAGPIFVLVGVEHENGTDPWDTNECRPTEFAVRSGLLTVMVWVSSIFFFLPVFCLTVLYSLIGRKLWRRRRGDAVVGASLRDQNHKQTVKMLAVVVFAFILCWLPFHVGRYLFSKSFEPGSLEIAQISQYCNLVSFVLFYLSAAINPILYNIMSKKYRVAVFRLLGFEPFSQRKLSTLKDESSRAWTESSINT
- Protocol: Competitive radioligand binding assay (ghrelin receptor), standard method A
- Experimental Conditions: binding activity at the human ghrelin receptor, standard method A
pKi: −log10 of the molar value.

Solved cases (5 shown):
In [3]: df
Out[3]:
                                   compound  measured_quantity  experimental_result
0  CC(C)C[C@H]1NC(=O)[C@@H](C)N(C)C(=O)[C@H](C2CC2)NC[C@H]2CCc3cccc(c3O2)CCCNC1=O                pKi               ≥ 7.00
1  C[C@@H]1CCc2ccccc2O[C@H](C)CN[C@@H](C2CC2)C(=O)N(C)[C@H](C)C(=O)N[C@H](Cc2ccc(F)cc2)C(=O)N1                pKi               ≥ 8.00
2  C[C@@H]1CN[C@@H](C2CC2)C(=O)N(C)[C@H](C)C(=O)N[C@H](Cc2c(F)c(F)c(F)c(F)c2F)C(=O)NCCCc2ccccc2O1                pKi               ≥ 7.00
3  CC(C)CC1NC(=O)C(C)N(C)C(=O)C(C2CC2)NCC(C)OC2CCCCC2CCC(C)NC1=O (stereo not drawn)                pKi               ≥ 7.00
4  CC(C)CC1NC(=O)C(C)N(C)C(=O)C(C2CCCCC2)NCC(C)OC2CCCCC2CCCNC1=O (mixture of isomers)                pKi               ≥ 9.00

Turning to the following compound.
pKi reported for this compound `C[C@@H]1C(=O)N[C@H](Cc2cccc(Cl)c2)C(=O)NCCCc2ccccc2OCCN[C@@H](C2CC2)C(=O)N1C` : ≥ 7.00
